RUN DESCRIPTION: Acute toxicity test for oral administration to rats
CONDITION INFO: rat, in vivo, 1000 mg/kg; SD rats, single oral dose; read-out: Minimum dose (LD50) of oral administration
Known LD50 of a selection of molecules

Illustrative cases are given below, each with its answer.
MOLECULE	LD50
CC1CCCCN1C(C)COc1ccccc1Cc1ccccc1 (racemic)	≥ 1000 mg/kg
CC1CCCCN1[C@@H](C)COc1ccccc1Cc1ccccc1 (stereo partly drawn)	≥ 1000 mg/kg

Now look at this entry.
Q: Name the reported LD50 value associated with the molecule `C[C@H](COc1ccccc1Cc1ccccc1)N1CCCC[C@@H]1C`
Ans: ≥ 1000 mg/kg

* * *

System: skin cancer cell line A375-P
RUN DESCRIPTION: Trans-well cancer cell migration inhibition, A375-P
Assay type: cell-based
CONDITION INFO: Homo sapiens, A375P; Skin cancer cell A375-P; read-out: Concentration inhibiting migration of cancer cells by 50% (IC50 value)
// reported IC50 for each item listed
Respond with the bare value in nM.

Guide cases for IC50, answers given:
MOLECULE	TARGET OR SYSTEM	IC50 (nM)
CC1CCCCN1[C@@H](C)COc1ccccc1Cc1ccccc1 (stereo partly shown)	skin cancer cell line A375-P	1500
C[C@H](COc1ccccc1Cc1ccccc1)N1CCCC[C@@H]1C	skin cancer cell line A375-P	700
CC1CCCCN1C(C)COc1ccccc1Cc1ccccc1 (racemic)	skin cancer cell line A375-P	3000

Q: Given CC(COc1ccccc1Cc1ccccc1)N1CCCCC1 (stereo not shown) [benproperine, reference compound] , state its recorded IC50.
Ans: 7000

* * *

Tested on: prostate cancer cell line DU145
RUN DESCRIPTION: Trans-well cancer cell migration inhibition, DU145
Format: cell-based
CONDITION INFO: Homo sapiens, DU-145; Prostate cancer cell DU145; read-out: Concentration inhibiting migration of cancer cells by 50% (IC50 value)
TEST READOUT: IC50 (µM)
Give the value, in units of µM, as a plain number.

Example results:
COMPOUND	IC50 / µM
CC1CCCCN1[C@@H](C)COc1ccccc1Cc1ccccc1 (stereo partly shown)	5
C[C@H](COc1ccccc1Cc1ccccc1)N1CCCC[C@@H]1C	2
CC(COc1ccccc1Cc1ccccc1)N1CCCCC1 (stereo not shown) [benproperine, reference compound]	20

Q: Recorded IC50 of CC1CCCCN1C(C)COc1ccccc1Cc1ccccc1 (racemic) , please.
Ans: 3
